test system: Oryza sativa, (L.) Tebonnet; assay: Rice tolerance to post-transplant applications under flooded paddy conditions (Example 187), ORYSAT (Rice, Tebonnet); settings: Rate 0.0620 kg/ha, rated three to four weeks after treatment
value_type: ORYSAT herbicidal effect rating

Would you please look over these solved cases?
>  <smiles_string>
Cn1c(C(F)(F)F)cc(=O)n(-c2ccc3snc(COCC(=O)NS(C)(=O)=O)c3c2)c1=O

>  <test_result>
0.0

$$$$
>  <smiles_string>
Cn1c(C(F)(F)F)cc(=O)n(-c2ccc3snc(CSCC(=O)O)c3c2)c1=O

>  <test_result>
2.0

$$$$
>  <smiles_string>
Cn1c(C(F)(F)F)cc(=O)n(-c2ccc3snc(C=C(Cl)Cl)c3c2)c1=O

>  <test_result>
3.0

$$$$
>  <smiles_string>
COC(=O)COc1ccc(C)cc1-c1noc2ccc(-n3c(=O)cc(C(F)(F)F)n(C)c3=O)c(Cl)c12

>  <test_result>
0.0

$$$$
>  <smiles_string>
Cc1nsc2ccc(-n3c(=O)c(Cl)c(C(F)(F)F)n(C)c3=O)cc12

>  <test_result>
1.0

$$$$

Please go through the list and note ORYSAT herbicidal effect rating for each molecule.
1. C#CCOC(=O)COc1c(-c2nsc3ccc(-n4c(=O)cc(C(F)(F)F)n(C)c4=O)cc23)ccc(C)c1C
2. COC(=O)COc1ccc(-c2nsc3ccc(-n4c(=O)cc(C(F)(F)F)n(C)c4=O)cc23)cc1

Reply:
[3.0, 0.0]

* * *

test system: Oryza sativa, (L.) Tebonnet; experiment: Rice tolerance to post-transplant applications under flooded paddy conditions (Example 187), ORYSAT (Rice, Tebonnet); conditions: Rate 0.0320 kg/ha, rated three to four weeks after treatment; as to herbicidal effect rating ORYSAT: meaning of each grade not given here
value_type: herbicidal effect rating ORYSAT
Answers are plain numbers.

Would you please look over these solved cases?
>  <smiles_string>
Cc1ccc(S(=O)(=O)NC(=O)c2nsc3ccc(-n4c(=O)cc(C(F)(F)F)n(C)c4=O)cc23)cc1

>  <test_result>
2.5

$$$$
>  <smiles_string>
CON(C)C(=O)COc1ccccc1-c1nsc2ccc(-n3c(=O)cc(C(F)(F)F)n(C)c3=O)cc12

>  <test_result>
7.3

$$$$
>  <smiles_string>
Cc1nsc2cc(F)c(-n3c(=O)cc(C(F)(F)F)n(C)c3=O)cc12

>  <test_result>
7.5

$$$$
>  <smiles_string>
CN(C(=O)c1nsc2ccc(-n3c(=O)cc(C(F)(F)F)n(C)c3=O)cc12)S(C)(=O)=O

>  <test_result>
0.0

$$$$
>  <smiles_string>
Cn1c(C(F)(F)F)cc(=O)n(-c2ccc3snc(COCc4cccc([N+](=O)[O-])c4)c3c2)c1=O

>  <test_result>
0.0

$$$$
>  <smiles_string>
COc1cc2c(cc1-c1nsc3ccc(-n4c(=O)cc(C(F)(F)F)n(C)c4=O)cc13)CCC2

>  <test_result>
2.5

$$$$
>  <smiles_string>
CC(C)S(=O)(=O)NC(=O)c1nsc2ccc(-n3c(=O)cc(C(F)(F)F)n(C)c3=O)cc12

>  <test_result>
4.0

$$$$
>  <smiles_string>
Cc1cccc(COCc2nsc3ccc(-n4c(=O)cc(C(F)(F)F)n(C)c4=O)cc23)c1

>  <test_result>
4.0

$$$$
>  <smiles_string>
CC#CCOC(=O)c1nsc2ccc(-n3c(=O)cc(C(F)(F)F)n(C)c3=O)cc12

>  <test_result>
4.0

$$$$
>  <smiles_string>
Cn1c(C(F)(F)F)cc(=O)n(-c2ccc3snc(C(C#N)=Cc4ccncc4)c3c2)c1=O

>  <test_result>
0.0

$$$$

Please go through the list and note herbicidal effect rating ORYSAT for each compound.
1. Cn1c(C(F)(F)F)cc(=O)n(-c2ccc3snc(C(C#N)=Cc4ccoc4)c3c2)c1=O
2. Cn1c(C(F)(F)F)cc(=O)n(-c2ccc3snc(C(=O)CCl)c3c2)c1=O
3. COc1ccc(C)cc1-c1noc2cc(F)c(-n3c(=O)cc(C(F)(F)F)n(C)c3=O)cc12
4. Cn1c(C(F)(F)F)cc(=O)n(-c2ccc3snc(C(=O)NS(=O)(=O)c4ccc(Cl)cc4)c3c2)c1=O
5. Cn1c(C(F)(F)F)cc(=O)n(-c2ccc3snc(C(=O)NS(C)(=O)=O)c3c2)c1=O
6. CNC.Cn1c(C(F)(F)F)cc(=O)n(-c2ccc3snc(CSCC(=O)O)c3c2)c1=O

Reply:
1. 0.0
2. 0.0
3. 5.5
4. 0.5
5. 3.5
6. 0.0
